Molecular target: S. aureus Topo IV (Staphylococcus aureus, UniProt P0C1S7+P0C1U9)
Construct: purchased Inspiralis
Sequence (P0C1S7 whole entry): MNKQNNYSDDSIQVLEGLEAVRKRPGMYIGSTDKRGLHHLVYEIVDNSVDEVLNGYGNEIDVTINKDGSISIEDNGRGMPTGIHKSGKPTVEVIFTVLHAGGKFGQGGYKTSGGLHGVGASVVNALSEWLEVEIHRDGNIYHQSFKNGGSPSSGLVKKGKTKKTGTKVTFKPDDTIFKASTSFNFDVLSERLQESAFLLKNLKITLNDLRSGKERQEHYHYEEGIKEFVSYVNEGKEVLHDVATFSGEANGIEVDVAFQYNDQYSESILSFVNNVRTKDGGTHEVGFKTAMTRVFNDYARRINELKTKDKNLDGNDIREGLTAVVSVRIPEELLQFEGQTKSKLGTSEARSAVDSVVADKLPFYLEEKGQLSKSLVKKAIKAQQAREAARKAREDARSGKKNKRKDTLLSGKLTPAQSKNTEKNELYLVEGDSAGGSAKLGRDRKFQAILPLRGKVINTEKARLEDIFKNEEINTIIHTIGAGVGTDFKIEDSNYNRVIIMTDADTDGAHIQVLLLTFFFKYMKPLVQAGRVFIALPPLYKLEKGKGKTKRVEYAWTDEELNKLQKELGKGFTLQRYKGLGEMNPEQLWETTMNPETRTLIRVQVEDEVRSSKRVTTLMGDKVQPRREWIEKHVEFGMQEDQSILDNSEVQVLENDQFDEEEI
Sequence (P0C1U9 whole entry): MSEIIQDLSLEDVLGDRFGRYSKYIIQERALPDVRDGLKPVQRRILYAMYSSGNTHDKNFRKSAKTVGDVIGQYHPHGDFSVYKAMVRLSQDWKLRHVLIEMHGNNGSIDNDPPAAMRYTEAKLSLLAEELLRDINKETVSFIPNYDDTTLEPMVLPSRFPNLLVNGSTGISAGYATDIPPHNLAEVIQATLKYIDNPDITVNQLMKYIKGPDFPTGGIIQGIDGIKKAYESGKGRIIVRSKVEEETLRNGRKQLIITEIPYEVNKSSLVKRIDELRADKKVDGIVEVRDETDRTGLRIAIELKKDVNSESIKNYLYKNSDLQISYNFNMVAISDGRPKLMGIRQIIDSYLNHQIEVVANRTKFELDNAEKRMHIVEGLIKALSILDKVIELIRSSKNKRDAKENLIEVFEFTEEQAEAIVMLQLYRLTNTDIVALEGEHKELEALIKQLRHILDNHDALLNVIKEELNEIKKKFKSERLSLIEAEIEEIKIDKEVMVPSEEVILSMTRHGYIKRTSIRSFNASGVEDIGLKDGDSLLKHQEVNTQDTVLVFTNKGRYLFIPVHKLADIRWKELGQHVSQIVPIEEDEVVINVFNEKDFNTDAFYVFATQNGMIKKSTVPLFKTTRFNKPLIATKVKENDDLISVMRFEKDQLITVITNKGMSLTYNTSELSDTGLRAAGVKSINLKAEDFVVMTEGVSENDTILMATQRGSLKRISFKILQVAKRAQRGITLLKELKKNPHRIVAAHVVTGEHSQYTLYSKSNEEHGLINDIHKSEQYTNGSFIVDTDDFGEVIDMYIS
Test: S. aureus topo IV decatenation inhibition assay
Type: biochemical
measurement name: IC50 (µM)

molecule	readout value
COc1cc([C@@H]2c3cc4c(cc3[C@@H](O[C@@H]3O[C@@H]5CO[C@@H](C)O[C@H]5[C@H](O)[C@H]3O)[C@H]3COC(=O)[C@H]23)OCO4)cc(OC)c1O [Etoposide, etoposide]	246

---

Test system: S. aureus
Assay: MIC, broth microdilution, S. aureus strains
Type: cell-based
Settings: Staphylococcus aureus, S. aureus RN4220 GyrB D437V
measurement name: log10 of MIC (log10 of the value in µg/mL)

compound	log10 of MIC
COc1cc([C@@H]2c3cc4c(cc3[C@@H](O[C@@H]3O[C@@H]5CO[C@@H](C)O[C@H]5[C@H](O)[C@H]3O)[C@H]3COC(=O)[C@H]23)OCO4)cc(OC)c1O [Etoposide, etoposide]	2.41
COc1cc([C@@H]2c3cc4c(cc3[C@@H](O[C@@H]3O[C@@H]5CO[C@@H](c6cccs6)O[C@H]5[C@H](O)[C@H]3O)[C@H]3COC(=O)[C@H]23)OCO4)cc(OC)c1O [Teniposide, teniposide]	1.81
Cc1c2ccncc2c(C)c2c1[nH]c1ccccc12	0.00
COc1cccc2c1C(=O)c1c(O)c3c(c(O)c1C2=O)C[C@@](O)(C(=O)CO)C[C@@H]3O[C@H]1C[C@H](N)[C@H](O)[C@H](C)O1	0.90
COc1cc(NS(C)(=O)=O)ccc1Nc1c2ccccc2nc2ccccc12	1.81
COc1ccc2ncc(C#N)c(CCN3CCC(NCc4cc5c(cn4)OCS5)CC3)c2c1	-0.90
O=C1c2c(O)ccc(O)c2C(=O)c2c(NCCNCCO)ccc(NCCNCCO)c21	0.90
COc1cccc2c1C(=O)c1c(O)c3c(c(O)c1C2=O)C[C@@](O)(C(C)=O)C[C@@H]3O[C@H]1C[C@H](N)[C@H](O)[C@H](C)O1	0.90

---

Target: E. coli Topo IV (Escherichia coli, UniProt P0AFI2+P20083)
Construct: purchased Inspiralis
Sequence (P0AFI2 whole entry): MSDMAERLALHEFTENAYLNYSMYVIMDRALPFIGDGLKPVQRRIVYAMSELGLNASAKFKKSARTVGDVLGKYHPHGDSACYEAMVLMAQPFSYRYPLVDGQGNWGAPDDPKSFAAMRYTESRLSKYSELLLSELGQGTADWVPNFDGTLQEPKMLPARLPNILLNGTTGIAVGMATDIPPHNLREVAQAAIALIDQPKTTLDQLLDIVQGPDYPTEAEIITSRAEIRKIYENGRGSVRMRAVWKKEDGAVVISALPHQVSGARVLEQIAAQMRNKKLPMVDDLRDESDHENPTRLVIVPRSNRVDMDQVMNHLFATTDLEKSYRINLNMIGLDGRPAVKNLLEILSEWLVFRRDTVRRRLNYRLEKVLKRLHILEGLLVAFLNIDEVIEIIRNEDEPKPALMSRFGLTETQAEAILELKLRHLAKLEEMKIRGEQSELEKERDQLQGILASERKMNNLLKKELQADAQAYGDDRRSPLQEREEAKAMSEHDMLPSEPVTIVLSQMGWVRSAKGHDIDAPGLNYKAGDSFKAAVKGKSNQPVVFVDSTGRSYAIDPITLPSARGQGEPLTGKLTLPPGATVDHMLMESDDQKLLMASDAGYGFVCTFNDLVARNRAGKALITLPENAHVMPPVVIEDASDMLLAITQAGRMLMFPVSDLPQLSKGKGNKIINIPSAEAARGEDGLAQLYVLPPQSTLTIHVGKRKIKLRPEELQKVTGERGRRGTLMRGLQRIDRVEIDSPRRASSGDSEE
Sequence (P20083 whole entry): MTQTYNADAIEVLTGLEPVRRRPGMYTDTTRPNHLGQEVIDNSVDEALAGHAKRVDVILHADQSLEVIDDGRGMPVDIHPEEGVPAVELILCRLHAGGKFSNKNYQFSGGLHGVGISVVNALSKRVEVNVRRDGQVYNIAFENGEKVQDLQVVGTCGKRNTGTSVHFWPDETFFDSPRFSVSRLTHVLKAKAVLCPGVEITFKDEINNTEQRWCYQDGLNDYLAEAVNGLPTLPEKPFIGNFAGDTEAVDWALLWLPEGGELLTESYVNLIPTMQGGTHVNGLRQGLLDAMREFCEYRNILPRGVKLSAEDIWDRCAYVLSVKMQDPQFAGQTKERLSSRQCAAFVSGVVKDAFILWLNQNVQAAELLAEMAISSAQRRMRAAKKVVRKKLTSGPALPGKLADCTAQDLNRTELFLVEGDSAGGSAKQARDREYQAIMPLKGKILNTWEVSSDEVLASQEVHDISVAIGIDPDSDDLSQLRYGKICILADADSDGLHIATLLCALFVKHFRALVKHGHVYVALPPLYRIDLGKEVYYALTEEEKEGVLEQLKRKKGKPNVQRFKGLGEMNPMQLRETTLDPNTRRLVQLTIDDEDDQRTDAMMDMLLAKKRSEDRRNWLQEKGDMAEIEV
Assay: E. coli topo IV decatenation inhibition assay
Type: biochemical
Settings: read-out: IC50, E. coli Topo IV decatanation

compound	quantity unit	IC50
COc1cc([C@@H]2c3cc4c(cc3[C@@H](O[C@@H]3O[C@@H]5CO[C@@H](C)O[C@H]5[C@H](O)[C@H]3O)[C@H]3COC(=O)[C@H]23)OCO4)cc(OC)c1O [Etoposide, etoposide]	µM	107

---

Entries and their measured EC50 follow.
Target: S. aureus DNA gyrase (Staphylococcus aureus, UniProt P0A0K8+P20831)
Construct: Full-length S. aureus GyrA and GyrB were expressed in E. coli and purified as described
Experiment: biochemical

compound	EC50 [µM]
C[C@@H]1CN2c3ccc([N+](=O)[O-])cc3CC3(C(=O)NC(=O)NC3=O)[C@H]2[C@H](C)O1 [QPT-1, quinoline pyrimidine trione-1]	8.8
COc1cc([C@@H]2c3cc4c(cc3[C@@H](O[C@@H]3O[C@@H]5CO[C@@H](C)O[C@H]5[C@H](O)[C@H]3O)[C@H]3COC(=O)[C@H]23)OCO4)cc(OC)c1O [Etoposide, etoposide]	107

---

Target: S. aureus DNA gyrase (Staphylococcus aureus, UniProt P0A0K8+P20831)
Construct: Full-length S. aureus GyrA and GyrB were expressed in E. coli and purified as described
Assay: S. aureus DNA gyrase supercoiling inhibition assay
pIC50: −log10 of the molar value.

compound	pIC50
COc1cc([C@@H]2c3cc4c(cc3[C@@H](O[C@@H]3O[C@@H]5CO[C@@H](C)O[C@H]5[C@H](O)[C@H]3O)[C@H]3COC(=O)[C@H]23)OCO4)cc(OC)c1O [Etoposide, etoposide]	4.32

---

Molecular target: E. coli DNA gyrase (Escherichia coli, UniProt P0AES4+P0AES6)
Test: E. coli DNA gyrase supercoiling inhibition assay
pIC50: −log10 of the molar value.
measurement name: pIC50

compound	experimental target	readout value
C[C@@H]1CN2c3ccc([N+](=O)[O-])cc3CC3(C(=O)NC(=O)NC3=O)[C@H]2[C@H](C)O1	E. coli DNA gyrase (Escherichia coli, UniProt P0AES4+P0AES6)	6.19
COc1cc([C@@H]2c3cc4c(cc3[C@@H](O[C@@H]3O[C@@H]5CO[C@@H](C)O[C@H]5[C@H](O)[C@H]3O)[C@H]3COC(=O)[C@H]23)OCO4)cc(OC)c1O [Etoposide, etoposide]	E. coli DNA gyrase (Escherichia coli, UniProt P0AES4+P0AES6)	3.87
